Reference for the values: patent US20190100588A1

Reported ELISA O.D. values for a set of binders
Target: T1, Pep4 (human)
T1 construct: also called Peptide 4
T1 peptide: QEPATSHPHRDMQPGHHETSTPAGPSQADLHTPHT
Assay: ELISA, coated peptide; also: test concentration or dose not given here
Number only, in O.D.; omit the unit.

Solved entries (count: 3):
* antibody 623 (antibody, V domains shown, Mouse hybridoma-derived anti-CD138 antibody) VH: QIQLVQSGPELKKPGETVKISCKASGYTFTTYGMSWVKQAPGKGLKWMGWINTYSGVPTYADDFKGRFAFSLETSASTAYLQINNLKNEDTATFFCAREGSTMVTRYYFDYWGQGTTLTVSS VL: DIVMTQAAPSVPVTPGESVSISCRSSKSLLHSNGNTYLYWFLQRPGQSPQLLIYRMSNLASGVPDRFSGSGSGTAFTLRISRVEAEDVGVYYCMQHLEYPSTFGGGTKLEIK | 0.082
* antibody 616 (antibody, V domains shown, Mouse hybridoma-derived anti-CD138 antibody) VH: QIHLVQSGPELKKPGETVRISCKASGYTFTTYGMSWVKQAPGKALKWMGWINTYSGVPTYADDFKGRFAFSLETSASTAYLQINNLKNEDTATYFCTREGSTMVTRYYFDYWGQGTTLTVSS VL: DIVMTQAAPSVPVTPGESVSISCRSSKSLLHSNGNTYLYWFLQRPGQSPQLLIYRMSNLASGVPDRFSGSGSGTAFTLRISRVEAEDVGVYHCMQHLESPYTFGGGTTLEIK | 0.065
* antibody 619 (antibody, V domains shown, Mouse hybridoma-derived anti-CD138 antibody) VH: QIQLVQSGPELKKPGETVKISCKASGYTFTTYGMSWVKQAPGKGLKWMGWINTYSGVPTYADDFKGRFAFSLETSASTAYLQINNLKNEDTATYFCAREGSTMVTRYYFDYWGQGTTLTVSS VL: DIVMTQAAPSVPVTPGESVSISCRSSKSLLHSNGNTYLYWFLQRPGQSPQVLIYRMSNLASGVPDRFSGSGSGTAFTLRISRVEAEDVGVYYCMQHLESPYTFGGGTKLEIK | 0.066

Shift focus to the following entry.
q: State the recorded ELISA O.D. for this entry: antibody 617 (antibody, V domains shown, Mouse hybridoma-derived anti-CD138 antibody) VH: QVQLQLPGAELVKPGASVKVSCKASAYTFTSYWMHWVKQRPGQGLEWIGRIHPSDSDTNYNQNFKGKATLTVDKSSNTAYMQLSSLTSEDSAVYYCATGFSFWGQGTLVTVSA VL: DIVMTQSHKFMSTSVGDRVSITCKASQDVSTTVAWYQQKPGQSPKLLIYSASYRYTGVPDRFTGSGSGTDFTFTISSVQAEDLAVYYCQQHYSTRPTFGGGTKLEIK
a: 0.091
